Target: Lipolase® 100L (Thermomyces lanuginosus)
Construct: purchased Sigma-Aldrich
Assay: Lipase storage stability in liquid formulations at 37° C. (pNP-valerate activity)
Assay type: biochemical, Thermomyces lanuginosa
Details: base formulation II. (Lipolase 0.2 wt%, tested compound 2.5 wt%); 28 d storage at 37° C.
assayEndpoint: lipase activity, 28 d (%)

molecule	assayEndpoint	scaleUnit	result
CC(=O)OCC(COC(C)=O)OC(C)=O [B.4, glyceroltriacetate (triacetine), reference compound]	lipase activity, 28 d	%	42
O=C([O-])CC(O)(CC(=O)[O-])C(=O)[O-].[Na+].[Na+].[Na+] [B.2, citric acid trisodiumsalt, reference compound]	lipase activity, 28 d	%	41
CCOC(=O)CC(O)(CC(=O)OCC)C(=O)OCC [A.1, Triethylcitrate]	lipase activity, 28 d	%	83
CCOC(=O)CC(O)(CC(=O)O)C(=O)O (stereo not drawn) [A.6, Monoethylcitrate]	lipase activity, 28 d	%	80
CCOC(=O)CC(CC(=O)OCC)(OC(C)=O)C(=O)OCC [A.5, Acetyltriethylcitrate]	lipase activity, 28 d	%	85
O=C(CC(O)(CC(=O)OCc1ccccc1)C(=O)OCc1ccccc1)OCc1ccccc1 [A.8, Tribenzylcitrate]	lipase activity, 28 d	%	81

* * *

Target: Lipolase® 100L (Thermomyces lanuginosus, UniProt O59952)
Construct: purchased Sigma-Aldrich
Test: Lipase storage stability in liquid formulations at 37° C. (pNP-valerate activity)
Assay type: biochemical, Thermomyces lanuginosa
Details: base formulation IV. (Lipolase 0.2 wt%, tested compound 2.0 wt%); 35 d storage at 37° C.

compound	lipase activity, 35 d
CCOC(=O)CC(O)(CC(=O)O)C(=O)O (centres unmarked) [A.6, Monoethylcitrate]	78%
O=C([O-])CC(O)(CC(=O)[O-])C(=O)[O-].[Na+].[Na+].[Na+] [B.2, citric acid trisodiumsalt, reference compound]	34%
CC(=O)OCC(COC(C)=O)OC(C)=O [B.4, glyceroltriacetate (triacetine), reference compound]	46%
CCOC(=O)C(=O)OCC [B.3, diethyloxalate, reference compound]	46%
O=C(O)CC(O)(CC(=O)O)C(=O)O [B.1, citric acid, reference compound]	36%
CCCCOC(=O)CC(CC(=O)OCCCC)(OC(C)=O)C(=O)OCCCC [A.4, Acetyltributylcitrate]	83%
CCCCOC(=O)CC(O)(CC(=O)OCCCC)C(=O)OCCCC [A.3, Tributylcitrate]	85%
CCOC(=O)CC(O)(CC(=O)OCC)C(=O)OCC [A.1, Triethylcitrate]	82%

* * *

Target: Lipolase® 100L (Thermomyces lanuginosus, UniProt O59952)
Construct: purchased Sigma-Aldrich
Sequence (O59952 23-291): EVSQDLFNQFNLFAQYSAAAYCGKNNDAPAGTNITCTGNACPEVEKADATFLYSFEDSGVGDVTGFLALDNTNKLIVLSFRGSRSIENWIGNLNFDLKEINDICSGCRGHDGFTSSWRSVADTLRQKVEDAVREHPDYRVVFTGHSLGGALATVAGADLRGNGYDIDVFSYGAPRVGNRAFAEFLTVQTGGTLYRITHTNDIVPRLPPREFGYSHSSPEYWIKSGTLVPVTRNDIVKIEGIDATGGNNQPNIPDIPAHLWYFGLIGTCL
Experiment: Lipase storage stability in liquid formulations at 37° C. (pNP-valerate activity)
Type: biochemical, Thermomyces lanuginosa
Settings: base formulation IV. (Lipolase 0.2 wt%, tested compound 2.0 wt%); 3 d storage at 37° C.
Each entry below lists one item and its recorded lipase activity, 3 d value.
assayEndpoint: lipase activity, 3 d (%)

compound	measuredOn	result
CCOC(=O)CC(O)(CC(=O)O)C(=O)O (centres unmarked) [A.6, Monoethylcitrate]	Lipolase® 100L (Thermomyces lanuginosus, UniProt O59952)	96
O=C(O)CC(O)(CC(=O)O)C(=O)O [B.1, citric acid, reference compound]	Lipolase® 100L (Thermomyces lanuginosus, UniProt O59952)	95
CCOC(=O)C(=O)OCC [B.3, diethyloxalate, reference compound]	Lipolase® 100L (Thermomyces lanuginosus, UniProt O59952)	93
O=C([O-])CC(O)(CC(=O)[O-])C(=O)[O-].[Na+].[Na+].[Na+] [B.2, citric acid trisodiumsalt, reference compound]	Lipolase® 100L (Thermomyces lanuginosus, UniProt O59952)	90
CCCCOC(=O)CC(CC(=O)OCCCC)(OC(C)=O)C(=O)OCCCC [A.4, Acetyltributylcitrate]	Lipolase® 100L (Thermomyces lanuginosus, UniProt O59952)	97
CC(=O)OCC(COC(C)=O)OC(C)=O [B.4, glyceroltriacetate (triacetine), reference compound]	Lipolase® 100L (Thermomyces lanuginosus, UniProt O59952)	91
CCOC(=O)CC(O)(CC(=O)OCC)C(=O)OCC [A.1, Triethylcitrate]	Lipolase® 100L (Thermomyces lanuginosus, UniProt O59952)	96
CCCCOC(=O)CC(O)(CC(=O)OCCCC)C(=O)OCCCC [A.3, Tributylcitrate]	Lipolase® 100L (Thermomyces lanuginosus, UniProt O59952)	100

* * *

Target: Lipolase® 100L (Thermomyces lanuginosus, UniProt O59952)
Construct: purchased Sigma-Aldrich
Experiment: Lipase storage stability in liquid formulations at 37° C. (pNP-valerate activity)
Format: biochemical, Thermomyces lanuginosa
Details: base formulation III. (Lipolase 0.2 wt%, tested compound 2.0 wt%); 35 d storage at 37° C.

compound	lipase activity, 35 d
CCOC(=O)CC(O)(CC(=O)O)C(=O)O (stereo not shown) [A.6, Monoethylcitrate]	74%
CCOC(=O)C(=O)OCC [B.3, diethyloxalate, reference compound]	32%
CCCOC(=O)CC(O)(CC(=O)OCCC)C(=O)OCCC [A.2, Tripropylcitrate]	87%
O=C([O-])CC(O)(CC(=O)[O-])C(=O)[O-].[Na+].[Na+].[Na+] [B.2, citric acid trisodiumsalt, reference compound]	37%
CCOC(=O)CC(CC(=O)OCC)(OC(C)=O)C(=O)OCC [A.5, Acetyltriethylcitrate]	77%
O=C(O)CC(O)(CC(=O)O)C(=O)O [B.1, citric acid, reference compound]	30%
CCOC(=O)CC(O)(CC(=O)OCC)C(=O)OCC [A.1, Triethylcitrate]	82%

* * *

Target: Lipolase® 100L (Thermomyces lanuginosus)
Construct: purchased Sigma-Aldrich
Assay: Lipase storage stability in liquid formulations at 37° C. (pNP-valerate activity)
Format: biochemical, Thermomyces lanuginosa
Conditions: base formulation I. (Lipolase 0.2 wt%, tested compound 2.5 wt%); 28 d storage at 37° C.
assayEndpoint: lipase activity, 28 d (%)

molecule	assayEndpoint	result
CCOC(=O)CC(CC(=O)OCC)(OC(C)=O)C(=O)OCC [A.5, Acetyltriethylcitrate]	lipase activity, 28 d	81
O=C([O-])CC(O)(CC(=O)[O-])C(=O)[O-].[Na+].[Na+].[Na+] [B.2, citric acid trisodiumsalt, reference compound]	lipase activity, 28 d	47
CCCOC(=O)CC(O)(CC(=O)OCCC)C(=O)OCCC [A.2, Tripropylcitrate]	lipase activity, 28 d	87
CC(=O)OCC(COC(C)=O)OC(C)=O [B.4, glyceroltriacetate (triacetine), reference compound]	lipase activity, 28 d	45
CCOC(=O)C(=O)OCC [B.3, diethyloxalate, reference compound]	lipase activity, 28 d	45
O=C(O)CC(O)(CC(=O)O)C(=O)O [B.1, citric acid, reference compound]	lipase activity, 28 d	50
CCCCOC(=O)CC(CC(=O)OCCCC)(OC(C)=O)C(=O)OCCCC [A.4, Acetyltributylcitrate]	lipase activity, 28 d	83
CCOC(=O)CC(O)(CC(=O)OCC)C(=O)OCC [A.1, Triethylcitrate]	lipase activity, 28 d	85

* * *

Biological target: Lipolase® 100L (Thermomyces lanuginosus)
Construct: purchased Sigma-Aldrich
Sequence (O59952 23-291): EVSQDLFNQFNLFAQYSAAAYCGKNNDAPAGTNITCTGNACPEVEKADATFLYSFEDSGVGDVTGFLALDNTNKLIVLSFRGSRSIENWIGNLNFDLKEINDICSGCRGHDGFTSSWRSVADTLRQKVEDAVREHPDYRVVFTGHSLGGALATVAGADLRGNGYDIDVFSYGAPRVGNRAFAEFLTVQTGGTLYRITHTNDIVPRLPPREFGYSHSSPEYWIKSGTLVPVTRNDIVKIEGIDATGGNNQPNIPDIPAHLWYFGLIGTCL
Experiment: Lipase storage stability in liquid formulations at 37° C. (pNP-valerate activity)
Format: biochemical, Thermomyces lanuginosa
Conditions: base formulation II. (Lipolase 0.2 wt%, tested compound 2.5 wt%); 14 d storage at 37° C.
Each entry below lists one item and its recorded lipase activity, 14 d value.
assayEndpoint: lipase activity, 14 d (%)

compound	scaleUnit	result
O=C([O-])CC(O)(CC(=O)[O-])C(=O)[O-].[Na+].[Na+].[Na+] [B.2, citric acid trisodiumsalt, reference compound]	%	63
O=C(CC(O)(CC(=O)OCc1ccccc1)C(=O)OCc1ccccc1)OCc1ccccc1 [A.8, Tribenzylcitrate]	%	87
CC(=O)OCC(COC(C)=O)OC(C)=O [B.4, glyceroltriacetate (triacetine), reference compound]	%	67
CCOC(=O)CC(O)(CC(=O)O)C(=O)O (stereo not drawn) [A.6, Monoethylcitrate]	%	91
CCOC(=O)CC(CC(=O)OCC)(OC(C)=O)C(=O)OCC [A.5, Acetyltriethylcitrate]	%	93
CCOC(=O)CC(O)(CC(=O)OCC)C(=O)OCC [A.1, Triethylcitrate]	%	90
